Could you please report measured pIC50 for the items listed next?
tested on: 855422-203-R-J1-PDC spheroids with HUVEC/MSC, viability; assay: Anticancer human tumor 855422-203-R-J1-PDC patient-derived bladder carcinoma cell line growth inhibition [PI3K]; conditions: curve of first compound; second compound 0.1 µM
pIC50: −log10 of the molar value.

These recorded examples may help you get a feel for the data.
C[C@@H](NC(=O)c1ncnc(N)c1Cl)c1ncc(C(=O)Nc2cc(C(F)(F)F)c(Cl)cn2)s1 + CC(Nc1ccc2c(c1)OCCn1cc(N3C(=O)OCC3C(F)F)nc1-2)C(N)=O: < 5.00
CC(C)n1nc(-c2ccc3oc(N)nc3c2)c2c(N)ncnc21 + COc1c(OCCCN2CCOCC2)ccc2c3n(c(=NC(=O)c4cnc(N)nc4)nc12)CCN3: > 9.50
Cn1nccc1Nc1nccc(-c2ccn(C(CO)c3ccc(Cl)c(F)c3)c(=O)c2)n1 (stereo unspecified) + Cc1nc(NC(=O)N2CCCC2C(N)=O)sc1-c1ccnc(C(C)(C)C(F)(F)F)c1: 5.09

Answer for every listed entry: what is its pIC50? The entries follow.
1. C=CC(=O)N1CCN(c2nc(=O)n(-c3c(C)ccnc3C(C)C)c3nc(-c4c(O)cccc4F)c(F)cc23)C(C)C1 (stereo unspecified) + COc1c(OCCCN2CCOCC2)ccc2c3n(c(=NC(=O)c4cnc(N)nc4)nc12)CCN3
2. CC(Cn1ccc(-c2ccc(C#N)c(Cl)c2)n1)NC(=O)c1cc(C(C)O)[nH]n1 (stereo unspecified) + Cc1nc(NC(=O)N2CCCC2C(N)=O)sc1-c1ccnc(C(C)(C)C(F)(F)F)c1
3. Cn1ncnc1[C@H]1c2n[nH]c(=O)c3cc(F)cc(c23)N[C@@H]1c1ccc(F)cc1 + CC(Nc1ncnc2nc[nH]c12)c1cc2cccc(Cl)c2c(=O)n1-c1ccccc1
4. CC(C)NCC(C(=O)N1CCN(c2ncnc3c2C(C)CC3O)CC1)c1ccc(Cl)cc1 (stereo unspecified) + CC(Nc1ccc2c(c1)OCCn1cc(N3C(=O)OCC3C(F)F)nc1-2)C(N)=O
5. C[C@@H](NC(=O)c1ncnc(N)c1Cl)c1ncc(C(=O)Nc2cc(C(F)(F)F)c(Cl)cn2)s1 + COc1c(OCCCN2CCOCC2)ccc2c3n(c(=NC(=O)c4cnc(N)nc4)nc12)CCN3
6. CC1(C)CCC(Nc2ncc(C(F)(F)F)c(-c3c[nH]c4c(P(C)(C)=O)c(C#N)ccc34)n2)CN1 (stereo unspecified) + CC(Nc1ccc2c(c1)OCCn1cc(N3C(=O)OCC3C(F)F)nc1-2)C(N)=O
7. C#Cc1c(F)ccc2cc(O)cc(-c3ncc4c(N5CC6CCC(C5)N6)nc(OCC56CCCN5CC(F)C6)nc4c3F)c12 (stereo unspecified) + CC(Nc1ncnc2nc[nH]c12)c1cc2cccc(Cl)c2c(=O)n1-c1ccccc1
8. C#Cc1c(F)ccc2cc(O)cc(-c3ncc4c(N5CC6CCC(C5)N6)nc(OCC56CCCN5CC(F)C6)nc4c3F)c12 (stereo unspecified) + Cc1nc(NC(=O)N2CCCC2C(N)=O)sc1-c1ccnc(C(C)(C)C(F)(F)F)c1

> 7.50
< 5.00
< 7.00
6.17
> 7.50
> 7.50
< 5.00
< 5.00

Could I get pIC50 for every one of these entries?
1. Cn1cnc2c(F)c(Nc3ccc(Br)cc3Cl)c(C(=O)NOCCO)cc21 + CC(Nc1ncnc2nc[nH]c12)c1cc2cccc(Cl)c2c(=O)n1-c1ccccc1
2. CC1(C)CCC(Nc2ncc(C(F)(F)F)c(-c3c[nH]c4c(P(C)(C)=O)c(C#N)ccc34)n2)CN1 (stereo unspecified) + COc1c(OCCCN2CCOCC2)ccc2c3n(c(=NC(=O)c4cnc(N)nc4)nc12)CCN3
3. CC(C)NCC(C(=O)N1CCN(c2ncnc3c2C(C)CC3O)CC1)c1ccc(Cl)cc1 (stereo unspecified) + Cc1nc(NC(=O)N2CCCC2C(N)=O)sc1-c1ccnc(C(C)(C)C(F)(F)F)c1
4. CNC(=O)c1ccc(N2C(=S)N(c3ccc(C#N)c(C(F)(F)F)c3)C(=O)C2(C)C)cc1F + Cc1nc(NC(=O)N2CCCC2C(N)=O)sc1-c1ccnc(C(C)(C)C(F)(F)F)c1
5. CCN1CCN(Cc2ccc(Nc3ncc(F)c(-c4cc(F)c5nc(C)n(C(C)C)c5c4)n3)nc2)CC1 + CC(Nc1ncnc2nc[nH]c12)c1cc2cccc(Cl)c2c(=O)n1-c1ccccc1

< 5.52
> 7.50
5.97
< 5.00
< 6.00

Hello, I would appreciate it if you could give pIC50 for each entry below.
1. Cn1nccc1Nc1nccc(-c2ccn(C(CO)c3ccc(Cl)c(F)c3)c(=O)c2)n1 (stereo unspecified) + CC(Nc1ccc2c(c1)OCCn1cc(N3C(=O)OCC3C(F)F)nc1-2)C(N)=O
2. CC(=O)c1c(C)c2cnc(Nc3ccc(N4CCNCC4)cn3)nc2n(C2CCCC2)c1=O + COc1c(OCCCN2CCOCC2)ccc2c3n(c(=NC(=O)c4cnc(N)nc4)nc12)CCN3
3. CC(C)NCC(C(=O)N1CCN(c2ncnc3c2C(C)CC3O)CC1)c1ccc(Cl)cc1 (stereo unspecified) + COc1c(OCCCN2CCOCC2)ccc2c3n(c(=NC(=O)c4cnc(N)nc4)nc12)CCN3
4. CCN1CCN(Cc2ccc(Nc3ncc(F)c(-c4cc(F)c5nc(C)n(C(C)C)c5c4)n3)nc2)CC1 + COc1c(OCCCN2CCOCC2)ccc2c3n(c(=NC(=O)c4cnc(N)nc4)nc12)CCN3

1. 5.42
2. > 9.50
3. > 7.50
4. > 8.50

Missing value: pIC50, 855422-203-R-J1-PDC spheroids with HUVEC/MSC, viability, entry Cn1cnc2c(F)c(Nc3ccc(Br)cc3Cl)c(C(=O)NOCCO)cc21 + COc1c(OCCCN2CCOCC2)ccc2c3n(c(=NC(=O)c4cnc(N)nc4)nc12)CCN3 . Fill in?
> 8.02

====

tested on: 855422-203-R-J1-PDC spheroids with HUVEC/MSC, viability; experiment: Anticancer human tumor 855422-203-R-J1-PDC cell line growth inhibition [PI3K]; details: second compound 1 µM; first compound 0.0316 µM; active means viability on the fitted dose curve at most 10% of control; inactive means the rest;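 further: agents incubated with spheroids for one week before read-out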
Write down one outcome, taken from True = active, False = inactive

Field: example entries. Status: answers known.
CC1(C)CCC(CN2CCN(c3ccc(C(=O)NS(=O)(=O)c4ccc(NCC5CCOCC5)c([N+](=O)[O-])c4)c(Oc4cnc5[nH]ccc5c4)c3)CC2)=C(c2ccc(Cl)cc2)C1 + CC(Nc1ccc2c(c1)OCCn1cc(N3C(=O)OCC3C(F)F)nc1-2)C(N)=O: False
CC(Cn1ccc(-c2ccc(C#N)c(Cl)c2)n1)NC(=O)c1cc(C(C)O)[nH]n1 (stereo not drawn) + COc1c(OCCCN2CCOCC2)ccc2c3n(c(=NC(=O)c4cnc(N)nc4)nc12)CCN3: True

# ---- query compound ----
Any idea what this test logged for CCN1CCN(Cc2ccc(Nc3ncc(F)c(-c4cc(F)c5nc(C)n(C(C)C)c5c4)n3)nc2)CC1 + Cc1nc(NC(=O)N2CCCC2C(N)=O)sc1-c1ccnc(C(C)(C)C(F)(F)F)c1 ?
False

====

system: 855422-203-R-J1-PDC spheroids with HUVEC/MSC, viability; assay: Anticancer human tumor 855422-203-R-J1-PDC cell line growth inhibition [PI3K]; conditions: compound 0.1 µM; stronger effect = lower value;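 further: agents incubated with spheroids for one week before read-out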;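 on viability, T/C: 100% = DMSO vehicle-treated control wells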
Consider the following compounds; for each one, report its viability, T/C.

Completed entries (count: 3):
C=CC(=O)N1CCN(c2nc(=O)n(-c3c(C)ccnc3C(C)C)c3nc(-c4c(O)cccc4F)c(F)cc23)C(C)C1 (centres undefined): 95.2% [middle of 4 runs]
CC1(C)CCC(Nc2ncc(C(F)(F)F)c(-c3c[nH]c4c(P(C)(C)=O)c(C#N)ccc34)n2)CN1 (centres undefined): 25% [middle of 4 runs]
CC(Nc1ccc2c(c1)OCCn1cc(N3C(=O)OCC3C(F)F)nc1-2)C(N)=O (centres undefined): 76.7% [middle of 8 runs]

Here's the next entry for you.
If you can, please state the reported viability, T/C value of "C[C@@H](NC(=O)c1ncnc(N)c1Cl)c1ncc(C(=O)Nc2cc(C(F)(F)F)c(Cl)cn2)s1" .
99.5% [middle of 4 runs]

====

tested on: 855422-203-R-J1-PDC spheroids with HUVEC/MSC, viability; test: Anticancer human tumor 855422-203-R-J1-PDC cell line growth inhibition [PI3K]; conditions: second compound 1 µM; first compound 10 µM; active = viability on the fitted dose curve at most 10% of control; inactive = the rest;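 further: agents incubated with spheroids for one week before read-out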
Pick from T for active, F for inactive when you respond.

For C[C@@H](NC(=O)c1ncnc(N)c1Cl)c1ncc(C(=O)Nc2cc(C(F)(F)F)c(Cl)cn2)s1 + CC(Nc1ncnc2nc[nH]c12)c1cc2cccc(Cl)c2c(=O)n1-c1ccccc1 , what call appears in the results of this test?
F

Entry CC1(C)CCC(CN2CCN(c3ccc(C(=O)NS(=O)(=O)c4ccc(NCC5CCOCC5)c([N+](=O)[O-])c4)c(Oc4cnc5[nH]ccc5c4)c3)CC2)=C(c2ccc(Cl)cc2)C1 + COc1c(OCCCN2CCOCC2)ccc2c3n(c(=NC(=O)c4cnc(N)nc4)nc12)CCN3 : call = ?
T

Just curious, what result did C#Cc1c(F)ccc2cc(O)cc(-c3ncc4c(N5CC6CCC(C5)N6)nc(OCC56CCCN5CC(F)C6)nc4c3F)c12 (stereo not given) + COc1c(OCCCN2CCOCC2)ccc2c3n(c(=NC(=O)c4cnc(N)nc4)nc12)CCN3 get here?
T

Which outcome was assigned to C=CC(=O)N1CCN(c2nc(=O)n(-c3c(C)ccnc3C(C)C)c3nc(-c4c(O)cccc4F)c(F)cc23)C(C)C1 (stereo not given) + Cc1nc(NC(=O)N2CCCC2C(N)=O)sc1-c1ccnc(C(C)(C)C(F)(F)F)c1 in this test?
F

Could you please tell me the result logged for CNC(=O)c1ccc(N2C(=S)N(c3ccc(C#N)c(C(F)(F)F)c3)C(=O)C2(C)C)cc1F + CC(Nc1ccc2c(c1)OCCn1cc(N3C(=O)OCC3C(F)F)nc1-2)C(N)=O in this assay?
F

Outcome logged for CC1(C)CCC(Nc2ncc(C(F)(F)F)c(-c3c[nH]c4c(P(C)(C)=O)c(C#N)ccc34)n2)CN1 (stereo not given) + Cc1nc(NC(=O)N2CCCC2C(N)=O)sc1-c1ccnc(C(C)(C)C(F)(F)F)c1 in this assay:
T

Record lookup: outcome of this test for Cn1nccc1Nc1nccc(-c2ccn(C(CO)c3ccc(Cl)c(F)c3)c(=O)c2)n1 (stereo not given) + CC(Nc1ccc2c(c1)OCCn1cc(N3C(=O)OCC3C(F)F)nc1-2)C(N)=O ?
T

How did this test come out for CC(Cn1ccc(-c2ccc(C#N)c(Cl)c2)n1)NC(=O)c1cc(C(C)O)[nH]n1 (stereo not given) + COc1c(OCCCN2CCOCC2)ccc2c3n(c(=NC(=O)c4cnc(N)nc4)nc12)CCN3 ?
T

Look up the recorded call for C=CC(=O)N1CCN(c2nc(=O)n(-c3c(C)ccnc3C(C)C)c3nc(-c4c(O)cccc4F)c(F)cc23)C(C)C1 (stereo not given) + CC(Nc1ccc2c(c1)OCCn1cc(N3C(=O)OCC3C(F)F)nc1-2)C(N)=O in this test.
F

# fetch the recorded call for CCCS(=O)(=O)Nc1ccc(F)c(C(=O)c2c[nH]c3ncc(-c4ccc(Cl)cc4)cc23)c1F + CC(Nc1ncnc2nc[nH]c12)c1cc2cccc(Cl)c2c(=O)n1-c1ccccc1 here
T
